From: patent US20240409663A1

Target: T1, human GPC3-his tag protein (human, UniProt P51654 25-559, limits assumed)
T1 construct: recombinant soluble antigen used as analyte in all Biacore runs; also called recombinant GPC3 protein; rhGPC3-His; not shown: His tag
Experiment: SPR Biacore 8K, mAb captured, one or two doses GPC3-his
Listed below: kon values for each entry.
Give a bare numeral; the unit M⁻¹ s⁻¹ is implied.

binder	kon, M⁻¹ s⁻¹
52H5D3B8-15# chimeric mAb (antibody, V domains shown, CDR3 mutant of the 52H5D3B8 chimeric mAb (human IgG1)) VH: QVQLQQSGAELVRPGASVKLSCKALGYTFTDYEMHWVKQTPVHGLEWIGAIHPGSGGTAYNQKFKGKATLTADKFSSTGYMELSSLTSEDSAVYYCTRYYSFAYWGQGTLVTVSA VL: DVVMTQTPLSLPVSLGDQASISCRSSQSLVHSNGNTYLQWYLQKPGQSPKLLIYKVSNRFSGVPDRFSGSGSGTDFILKISRVEAEDLGVYFCFQSTHVPYTFGGGTKLEIK	267000

Q. Quick one: give measured kon for 52H5D3B8-12# chimeric mAb (antibody, V domains shown, CDR3 mutant of the 52H5D3B8 chimeric mAb (human IgG1)) VH: QVQLQQSGAELVRPGASVKLSCKALGYTFTDYEMHWVKQTPVHGLEWIGAIHPGSGGTAYNQKFKGKATLTADKFSSTGYMELSSLTSEDSAVYYCTRYYSYAYWGQGTLVTVSA VL: DVVMTQTPLSLPVSLGDQASISCRSSQSLVHSNGNTYLQWYLQKPGQSPKLLIYKVSNRFSGVPDRFSGSGSGTDFILKISRVEAEDLGVYFCFQSTHVPYTFGGGTKLEIK
A. 240000

Q. Note kon for the binder shown: 52H5D3B8-14# chimeric mAb (antibody, V domains shown, CDR3 mutant of the 52H5D3B8 chimeric mAb (human IgG1)) VH: QVQLQQSGAELVRPGASVKLSCKALGYTFTDYEMHWVKQTPVHGLEWIGAIHPGSGGTAYNQKFKGKATLTADKFSSTGYMELSSLTSEDSAVYYCTRYYSFAYWGQGTLVTVSA VL: DVVMTQTPLSLPVSLGDQASISCRSSQSLVHSNGNTYLQWYLQKPGQSPKLLIYKVSNRFSGVPDRFSGSGSGTDFILKISRVEAEDLGVYFCFQSIHVPYTFGGGTKLEIK
A. 481000

Q. Supply kon value. Item: 52H5D3B8-2# chimeric mAb (antibody, V domains shown, CDR3 mutant of the 52H5D3B8 chimeric mAb (human IgG1)) VH: QVQLQQSGAELVRPGASVKLSCKALGYTFTDYEMHWVKQTPVHGLEWIGAIHPGSGGTAYNQKFKGKATLTADKFSSTGYMELSSLTSEDSAVYYCTRFYSFAYWGQGTLVTVSA VL: DVVMTQTPLSLPVSLGDQASISCRSSQSLVHSNGNTYLQWYLQKPGQSPKLLIYKVSNRFSGVPDRFSGSGSGTDFILKISRVEAEDLGVYFCSQSIHVPYTFGGGTKLEIK
A. 228000

Q. Fill in reported kon for this entry: 52H5D3B8-13# chimeric mAb (antibody, V domains shown, CDR3 mutant of the 52H5D3B8 chimeric mAb (human IgG1)) VH: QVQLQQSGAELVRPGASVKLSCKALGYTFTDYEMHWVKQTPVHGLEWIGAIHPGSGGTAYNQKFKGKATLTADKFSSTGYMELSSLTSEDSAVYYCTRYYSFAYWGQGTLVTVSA VL: DVVMTQTPLSLPVSLGDQASISCRSSQSLVHSNGNTYLQWYLQKPGQSPKLLIYKVSNRFSGVPDRFSGSGSGTDFILKISRVEAEDLGVYFCSQSTHVPYTFGGGTKLEIK
A. 49600

Q. Tell me its kon given 52H5D3B8-6# chimeric mAb (antibody, V domains shown, CDR3 mutant of the 52H5D3B8 chimeric mAb (human IgG1); also called 52H5D3B8-6#-VH+VL) VH: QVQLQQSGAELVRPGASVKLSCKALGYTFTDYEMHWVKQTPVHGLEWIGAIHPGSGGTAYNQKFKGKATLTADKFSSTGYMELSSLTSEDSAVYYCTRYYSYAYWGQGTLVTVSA VL: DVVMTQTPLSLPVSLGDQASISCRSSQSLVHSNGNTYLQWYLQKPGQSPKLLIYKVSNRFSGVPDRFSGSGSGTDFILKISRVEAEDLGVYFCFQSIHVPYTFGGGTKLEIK as the entry.
A. 785000

Q. Fill in reported kon for this entry: 52H5D3B8-5# chimeric mAb (antibody, V domains shown, CDR3 mutant of the 52H5D3B8 chimeric mAb (human IgG1)) VH: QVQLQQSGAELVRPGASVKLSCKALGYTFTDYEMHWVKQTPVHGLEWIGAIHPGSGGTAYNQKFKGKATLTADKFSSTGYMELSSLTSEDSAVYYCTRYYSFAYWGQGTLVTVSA VL: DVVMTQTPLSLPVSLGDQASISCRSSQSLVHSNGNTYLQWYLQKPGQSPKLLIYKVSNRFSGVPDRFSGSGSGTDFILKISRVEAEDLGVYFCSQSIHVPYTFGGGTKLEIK
A. 100000

Q. Fill in kon for record 52H5D3B8-9# chimeric mAb (antibody, V domains shown, CDR3 mutant of the 52H5D3B8 chimeric mAb (human IgG1)) VH: QVQLQQSGAELVRPGASVKLSCKALGYTFTDYEMHWVKQTPVHGLEWIGAIHPGSGGTAYNQKFKGKATLTADKFSSTGYMELSSLTSEDSAVYYCTRFYSFAYWGQGTLVTVSA VL: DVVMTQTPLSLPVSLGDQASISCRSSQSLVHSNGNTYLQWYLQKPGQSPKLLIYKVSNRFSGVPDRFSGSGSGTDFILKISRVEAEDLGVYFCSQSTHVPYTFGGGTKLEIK
A. 167000

Q. Specify reported kon for the binder shown: 52H5D3B8-7# chimeric mAb (antibody, V domains shown, CDR3 mutant of the 52H5D3B8 chimeric mAb (human IgG1)) VH: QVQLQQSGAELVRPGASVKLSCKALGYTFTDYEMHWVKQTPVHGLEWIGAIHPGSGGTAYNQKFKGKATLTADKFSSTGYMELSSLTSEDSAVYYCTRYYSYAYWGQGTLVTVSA VL: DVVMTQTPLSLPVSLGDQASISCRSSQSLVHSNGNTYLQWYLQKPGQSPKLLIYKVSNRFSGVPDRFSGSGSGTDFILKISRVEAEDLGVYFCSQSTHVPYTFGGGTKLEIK
A. 155000

Q. Supply reported kon belonging to this binder: 52H5D3B8-1# chimeric mAb (antibody, V domains shown, CDR3 mutant of the 52H5D3B8 chimeric mAb (human IgG1)) VH: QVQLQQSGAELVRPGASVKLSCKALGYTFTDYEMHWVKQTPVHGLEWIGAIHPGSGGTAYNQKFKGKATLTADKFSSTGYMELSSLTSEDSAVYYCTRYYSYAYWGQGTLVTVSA VL: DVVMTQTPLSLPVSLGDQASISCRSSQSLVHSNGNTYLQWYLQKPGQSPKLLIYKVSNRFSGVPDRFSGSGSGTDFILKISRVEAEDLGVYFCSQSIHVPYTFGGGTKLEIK
A. 390000
